Hey, just so you know, these numbers are from the supplement of paper PMC10724198.

- Test system: Saccharomyces cerevisiae
- PROTOCOL NOTES: protein stability index of tFT-peptide fusion (C-terminal peptide) (PSI (0-1 scale)); higher = more stable (slower turnover)
- CONDITION: genetic background: wild type; temperature: 30 C
REPORTED PROPERTY: protein stability index
// response body must contain only the number

Observe how each entry below is paired with its result.
[[record]]
item_sequence = "LTHQENNIWVSR"
tested_system = "Saccharomyces cerevisiae"
recorded_number = 0.703

[[record]]
item_sequence = "PMFESFHLPAPI"
tested_system = "Saccharomyces cerevisiae"
recorded_number = 0.715

[[record]]
item_sequence = "RSPPPVPELTRL"
tested_system = "Saccharomyces cerevisiae"
recorded_number = 0.704

[[record]]
item_sequence = "LSFPSPSLCRPL"
tested_system = "Saccharomyces cerevisiae"
recorded_number = 0.694


Incoming: # returns recorded protein stability index (system: Saccharomyces cerevisiae) for `PRSSSRAGRTGT`
Outgoing: 0.712

Incoming: Entry `LLPLLPAPRPPF` please
Outgoing: 0.691

Incoming: Entry `PPPPPLPPPPPP` please
Outgoing: 0.593

Incoming: Entry `RWGVGGSVSFWW` please
Outgoing: 0.7

Incoming: Entry `SVLSPTLESLIF` please
Outgoing: 0.681

Incoming: Entry `FVLGGLHAGYVL` please
Outgoing: 0.715

Incoming: Entry `LSFTFSQLLSFP` please
Outgoing: 0.681

Incoming: Entry `PPAPTPSPSPPP` please
Outgoing: 0.68

Incoming: Entry `GLVGCDPPPPAF` please
Outgoing: 0.72

Incoming: Entry `YGRANATHLGRR` please
Outgoing: 0.661

Incoming: Entry `LGRKWDCLGRYV` please
Outgoing: 0.637

Incoming: Entry `DLARSLVQSLSG` please
Outgoing: 0.675

Incoming: Entry `GWGGSIGEEWGG` please
Outgoing: 0.687

Incoming: Entry `RLSSLRAFSLRS` please
Outgoing: 0.721

Incoming: Entry `EKKNMRYKTVEI` please
Outgoing: 0.668

Incoming: Entry `PGLCGGRRCVAL` please
Outgoing: 0.638

Incoming: Entry `ALPPSFPRPFSF` please
Outgoing: 0.703

Incoming: Entry `GTRRHSFCSGTG` please
Outgoing: 0.703

Incoming: Entry `PLPSPSYLKSPC` please
Outgoing: 0.705

Incoming: Entry `VLVVVRSLSFLS` please
Outgoing: 0.382

Incoming: Entry `PALPPPPSPPLL` please
Outgoing: 0.754

Incoming: Entry `TYNVMFSPWRKA` please
Outgoing: 0.206

Incoming: Entry `PSPSYAPARHQA` please
Outgoing: 0.651

====

Examples of sequences with documented protein stability index follow.
- System: Saccharomyces cerevisiae
- PROTOCOL NOTES: protein stability index of tFT-peptide fusion (C-terminal peptide) (PSI (0-1 scale)); higher = more stable (slower turnover)
- CONDITION: genetic background: wild type; temperature: 30 C
// response body must contain only the number

Observe how each entry below is paired with its result.
[[record]]
item_sequence = "VWVQISGRLNWK"
recorded_number = 0.709

[[record]]
item_sequence = "LPARFLIDFTRV"
recorded_number = 0.688

[[record]]
item_sequence = "GGLRWVLGAQAV"
recorded_number = 0.707

[[record]]
item_sequence = "KKKKKTKEINLK"
recorded_number = 0.67


Incoming: Would you mind telling me what protein stability index value was observed for `IVTSPRPPRCTS` ?
Outgoing: 0.719

Incoming: Entry `SDSIVTGCLKYP` please
Outgoing: 0.696

Incoming: Entry `APAAPLPVVSPD` please
Outgoing: 0.752

====

Examples of sequences with documented protein stability index follow.
- System: Saccharomyces cerevisiae
- PROTOCOL NOTES: protein stability index of tFT-peptide fusion (C-terminal peptide) (PSI (0-1 scale)); higher = more stable (slower turnover)
- CONDITION: genetic background: doa10 deletion; temperature: 30 C

Observe how each entry below is paired with its result.
[[record]]
item_sequence = "VRSELHINSFIH"
tested_system = "Saccharomyces cerevisiae"
reported_property = "protein stability index"
result = 0.499

[[record]]
item_sequence = "YRLTIVWFFLAL"
tested_system = "Saccharomyces cerevisiae"
reported_property = "protein stability index"
result = 0.35

[[record]]
item_sequence = "NFSALECKVQLT"
tested_system = "Saccharomyces cerevisiae"
reported_property = "protein stability index"
result = 0.647


Incoming: Would you mind telling me what protein stability index value was observed for `YNRKQEAAQKAN` ?
Outgoing: 0.363

Incoming: Entry `RKRKKISEIIAI` please
Outgoing: 0.519

Incoming: Entry `LCARVCITFNIV` please
Outgoing: 0.401

Incoming: Entry `PDRSTILHISGF` please
Outgoing: 0.644

Incoming: Entry `KMIVWKESIKRE` please
Outgoing: 0.63

Incoming: Entry `SSGRLRFISRIH` please
Outgoing: 0.316

Incoming: Entry `IVGVLAVLVRPV` please
Outgoing: 0.34

====

- Test system: Saccharomyces cerevisiae
- PROTOCOL NOTES: protein stability index of tFT-peptide fusion (C-terminal peptide) (PSI (0-1 scale)); higher = more stable (slower turnover)
- CONDITION: genetic background: das1 deletion; temperature: 30 C
Examples of sequences with documented protein stability index follow.
// response body must contain only the number

Observe how each entry below is paired with its result.
[[record]]
item_sequence = "NDDSKDEDDIIP [MAL33 C-terminal 12 aa]"
tested_system = "Saccharomyces cerevisiae"
recorded_number = 0.683

[[record]]
item_sequence = "KADIACAGKQLI [YHL042W C-terminal 12 aa]"
tested_system = "Saccharomyces cerevisiae"
recorded_number = 0.676

[[record]]
item_sequence = "IEQSFGVIEYFP [SCW11 C-terminal 12 aa]"
tested_system = "Saccharomyces cerevisiae"
recorded_number = 0.717


Next sequence, protein stability index to be filled in.
Incoming: Would you mind telling me what protein stability index value was observed for DFNSKSKKKNDK [MIN6 C-terminal 12 aa] ?
Outgoing: 0.697

====

- Test system: Saccharomyces cerevisiae
- PROTOCOL NOTES: protein stability index of tFT-peptide fusion (C-terminal peptide) (PSI (0-1 scale)); higher = more stable (slower turnover)
- CONDITION: genetic background: wild type; temperature: 30 C
Examples of sequences with documented protein stability index follow.
// response body must contain only the number

[[record]]
item_sequence = "LAFYLRRLTAKK [RPS8A C-terminal 12 aa]"
recorded_number = 0.657

[[record]]
item_sequence = "FRPDEMNIVTKF [PRM15 C-terminal 12 aa]"
recorded_number = 0.753

[[record]]
item_sequence = "MGCIKGTVKTKY [ABZ2 C-terminal 12 aa]"
recorded_number = 0.756

[[record]]
item_sequence = "ILTLVETLSEQE [VMA22 C-terminal 12 aa]"
recorded_number = 0.705

[[record]]
item_sequence = "RSIKRPELGLRV [STT3 C-terminal 12 aa]"
recorded_number = 0.686


Incoming: Would you mind telling me what protein stability index value was observed for IPNIFGKFTVTS [YKL091C C-terminal 12 aa] ?
Outgoing: 0.683

Incoming: Entry TALDYVSEKKKN [STE24 C-terminal 12 aa] please
Outgoing: 0.709

Incoming: Entry LLERLSILDRLD [APS2 C-terminal 12 aa] please
Outgoing: 0.69

Incoming: Entry STLSRPFTWEEI [ATG34 C-terminal 12 aa] please
Outgoing: 0.752

Incoming: Entry DCGWVSDAYKNH [LCL2 C-terminal 12 aa] please
Outgoing: 0.724

Incoming: Entry SFLFGLYLLLHP [SPR2 C-terminal 12 aa] please
Outgoing: 0.484

Incoming: Entry SYKSNQPSSQNT [MDM36 C-terminal 12 aa] please
Outgoing: 0.675

====

- Tested on: Saccharomyces cerevisiae
- PROTOCOL NOTES: protein stability index of tFT-peptide fusion (C-terminal peptide) (PSI (0-1 scale)); higher = more stable (slower turnover)
- CONDITION: genetic background: wild type; temperature: 30 C
REPORTED PROPERTY: protein stability index
// response body must contain only the number

Observe how each entry below is paired with its result.
[[record]]
item_sequence = "SFFVCVRVFGCC"
recorded_number = 0.337

[[record]]
item_sequence = "YSWRAKGVKRLR"
recorded_number = 0.659

[[record]]
item_sequence = "RLLPPSLAQRNN"
recorded_number = 0.591

[[record]]
item_sequence = "PVPRNRQRWREP"
recorded_number = 0.663

[[record]]
item_sequence = "LPSLTPPPLLLS"
recorded_number = 0.582

[[record]]
item_sequence = "PRLVHGFPRFHP"
recorded_number = 0.669


Incoming: Would you mind telling me what protein stability index value was observed for `PYSLRSTASSFP` ?
Outgoing: 0.63

Incoming: Entry `PPSRPPPARREP` please
Outgoing: 0.7

Incoming: Entry `VLDPRGEFFSHP` please
Outgoing: 0.657

====

- Tested on: Saccharomyces cerevisiae
- PROTOCOL NOTES: protein stability index of tFT-peptide fusion (C-terminal peptide) (PSI (0-1 scale)); higher = more stable (slower turnover)
- CONDITION: genetic background: wild type; temperature: 30 C
Examples of sequences with documented protein stability index follow.

[[record]]
item_sequence = "SLPFSPPTRSSL"
result = 0.758

[[record]]
item_sequence = "IKKRKQYCKRIK"
result = 0.68

[[record]]
item_sequence = "WATPRPCQMVPS"
result = 0.567


Incoming: Would you mind telling me what protein stability index value was observed for `FNVSNPVSLQTG` ?
Outgoing: 0.641

Incoming: Entry `GVGRGCVLNGGG` please
Outgoing: 0.743
